Assay: LogP by HPLC on reversed phase columns (EEC directive 79/831 Annex V.A8), method [a]
Format: physicochemical
Conditions: LC-UV, acidic range, 0.1% formic acid in water and acetonitrile as eluent (linear gradient 10% to 95% acetonitrile)
Observed property: LogP[a]
Answer using only a numeral; do not append any unit.

Look over these answered cases.
[[record]]
molecule = "Cc1c(NC(=O)c2cccnc2C(F)F)cccc1C1CC1"
data_value = 2.43

[[record]]
molecule = "Cc1c(NC(=O)c2cccnc2C(F)F)cccc1-c1cnn(C(C)C)c1"
data_value = 2.17

[[record]]
molecule = "Cc1c(NC(=O)c2cccnc2C(F)F)cccc1OCC(C)C"
data_value = 3.17

[[record]]
molecule = "Cc1ccc(-c2cccc(NC(=O)c3cccnc3C(F)F)c2C)s1"
data_value = 3.19

[[record]]
molecule = "Cc1cnc(C(F)F)c(C(=O)Nc2cccc(OC(C)C)c2C(F)(F)F)c1"
data_value = 3.04

[[record]]
molecule = "O=C(Nc1cccc(-c2ccc(F)cc2)c1Cl)c1cccnc1C(F)F"
data_value = 3.12

[[record]]
molecule = "Cc1c(NC(=O)c2cccnc2C(F)F)cccc1OCCc1ccccc1Cl"
data_value = 3.65

[[record]]
molecule = "CCC(C)Oc1cccc(NC(=O)c2ccc(Cl)nc2C(F)F)c1C(F)(F)F (stereo not drawn)"
data_value = 3.83


Now for the molecule whose LogP[a] we want.
Recorded LogP[a] of Cc1ccc(OCC(C)Oc2cccc(NC(=O)c3cccnc3C(F)F)c2C)cc1 (stereo not drawn) , please. 3.68

====

Test: LogP by HPLC on reversed phase columns (EEC directive 79/831 Annex V.A8), method [a]
Type: physicochemical
Details: LC-UV, acidic range, 0.1% formic acid in water and acetonitrile as eluent (linear gradient 10% to 95% acetonitrile)
In this section, each of the compounds is paired with its reported LogP[a].
Output: the number by itself.

A selection of reference data follows.
[[record]]
compound = "Cc1c(NC(=O)c2cccnc2C(F)F)cccc1OC(C)COc1ccccc1Cl (stereo not drawn) [Example 35]"
data_value = 3.59

[[record]]
compound = "Cc1c(NC(=O)c2cccnc2C(F)F)cccc1OCC=C(Cl)Cl [Example 76]"
data_value = 3.21

[[record]]
compound = "Cc1c(NC(=O)c2cccnc2C(F)F)cccc1OC(C)(C)C(C)C [Example 117]"
data_value = 3.61

[[record]]
compound = "Cc1c(NC(=O)c2cccnc2C(F)F)cccc1OC(C)Cc1ccccc1 (stereo not drawn) [Example 88]"
data_value = 3.62

[[record]]
compound = "CCCC(CCC)Oc1cccc(NC(=O)c2cccnc2C(F)F)c1C [Example 12]"
data_value = 4.26


Look at this compound and give its reported LogP[a]. Cc1c(NC(=O)c2cccnc2C(F)F)cccc1N(C)C1CCCC1 [Example 109] 1.39

So what does the record say about LogP[a] for O=C(Nc1cccc(-c2ccc(Cl)cc2)c1Cl)c1cccnc1C(F)F [Example 9] ? 3.54

Field request: LogP[a] | item: Cc1c(NC(=O)c2c(C(F)F)ccnc2C(F)F)cccc1OC1CCCC1 [Example 123] 3.70

If you can, please state the reported LogP[a] value of Cc1c(NC(=O)c2cccnc2C(F)F)cccc1OCc1cccc(Br)c1 [Example 54] . 3.52

Recorded LogP[a] for Cc1c(NC(=O)c2cccnc2C(F)F)cccc1OCc1ccc(C(F)(F)F)cc1 [Example 73] , please? 3.57

LogP[a] for Cc1c(NC(=O)c2cccnc2C(F)F)cccc1Oc1ncc(C(F)(F)F)cc1Cl [Example 18] ? 3.48

Report LogP[a] for CC(C)Oc1cccc(NC(=O)c2ccc(Cl)nc2C(F)F)c1C(F)(F)F [Example 97] please. 3.46

Data origin, for the record: patent US20180057462A1
